- SYSTEM TESTED: HCMV No protease (Human cytomegalovirus)
- Sequence (P16753 1-256): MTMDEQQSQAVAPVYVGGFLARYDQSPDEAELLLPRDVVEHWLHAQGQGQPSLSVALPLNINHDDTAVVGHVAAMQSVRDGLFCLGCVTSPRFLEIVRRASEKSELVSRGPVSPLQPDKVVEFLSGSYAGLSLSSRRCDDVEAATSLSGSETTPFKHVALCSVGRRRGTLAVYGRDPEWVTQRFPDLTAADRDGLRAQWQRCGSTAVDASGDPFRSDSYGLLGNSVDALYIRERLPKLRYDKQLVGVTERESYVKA
Please assign no whenever IC50 is at or above 0.8 µM, and yes whenever it is below.

*Q* Confirm or reject: IC50 of `C[C@@H](NC(=O)N1C(=O)C[C@@H]1SCc1ccccc1)c1ccccc1` lies strictly below 0.8 µM
*A* no

*Q* In plain terms, does `CC(C)C[C@@H](CS[C@H]1CC(=O)N1C(=O)NCc1ccccc1)NC(=O)[C@@H](NC(=O)OC(C)(C)C)C(C)(C)C` come in under 0.8 µM for IC50?
*A* yes

*Q* Take the molecule `COC(=O)[C@H](C)O[C@H]1CC(=O)N1C(=O)N[C@H](C)c1ccccc1` and say whether its IC50 is less than 0.8 µM.
*A* no

*Q* Consider the molecule C[C@@H](NC(=O)N1C(=O)C[C@@H]1[S+]([O-])c1ccccc1)c1ccccc1 (some centres unmarked) . Is its IC50 strictly less than 0.8 µM?
*A* no

*Q* Lab log: compare recorded IC50 with 0.8 µM; is it strictly lower for `C[C@@H](NC(=O)N1C(=O)C[C@H]1Oc1ccc(Cl)cc1)c1ccccc1` ?
*A* no

*Q* IC50 under 0.8 µM? Item: `COC(=O)[C@@H](C)O[C@@H]1CC(=O)N1C(=O)N[C@H](C)c1ccccc1`
*A* no

*Q* Is the reported IC50 for `CC(C)C[C@@H](CO[C@H]1CC(=O)N1C(=O)N[C@H](C)c1ccccc1)NC(=O)[C@@H](NC(=O)OC(C)(C)C)C(C)(C)C` strictly below 0.8 µM?
*A* yes

###

- TEST DETAILS: Cytotoxic effects, tetrazolium salt (MTT) metabolic assay
- Assay type: cell-based
- SETUP CONDITIONS: cytotoxicity, Table 1 and Table 2, read-out: TC50 (the source's name)
Structures can show the parent of a compound that is named as a salt.
PROPERTY LABEL: CC50

*Q* Can you look up the measured CC50 of C[C@@H](NC(=O)N1C(=O)C[C@@H]1SCc1ccncc1)c1ccccc1 [Entry 109] for me?
*A* > 250 µM

*Q* For the compound shown here, C[C@@H](NC(=O)N1C(=O)C[C@@H]1SCc1cccnc1)c1ccccc1 [Entry 110] , give the reported CC50.
*A* > 200 µM

*Q* Dear colleague, I am looking for the recorded CC50 of the following compound: C[C@@H](NC(=O)N1C(=O)C[C@@H]1SCC(=O)c1ccccc1)c1ccccc1 [Entry 112]
*A* > 37 µM

*Q* I'd like to know its CC50. The compound in question is C[C@@H](NC(=O)N1C(=O)C[C@@H]1SCc1ccccn1)c1ccccc1 [Entry 111]
*A* 180 µM

*Q* Name the recorded CC50 for CC(C)C[C@@H](CO[C@@H]1CC(=O)N1C(=O)NCc1ccccc1)NC(=O)[C@@H](NC(=O)OC(C)(C)C)C(C)(C)C [Entry 202] .
*A* > 52 µM

*Q* Record request: CC50 value, item CN(C(=O)CC(CO[C@@H]1CC(=O)N1C(=O)NCc1ccccc1)NC(=O)CC(C)(C)C)C(C)(C)C (stereo partly shown) [Entry 205]
*A* > 250 µM

*Q* Please look up its CC50: C[C@@H](NC(=O)N1C(=O)C[C@@H]1Oc1ccc(Cl)cc1)c1ccccc1 [Entry 207]
*A* > 250 µM

*Q* What value of CC50 has been reported for the following compound? C[C@@H](NC(=O)N1C(=O)C[C@H]1SC[C@H](CCS(C)(=O)=O)NC(=O)[C@@H](NC(=O)OC(C)(C)C)C(C)(C)C)c1ccccc1 [Entry 106]
*A* > 250 µM

*Q* Consider the compound CC[C@@H](NC(=O)N1C(=O)C[C@@H]1SC[C@H](CC(C)C)NC(=O)[C@@H](NC(=O)CC(C)(C)C)C(C)(C)C)c1ccccc1 [Entry 115] and give its measured CC50.
*A* > 250 µM

*Q* Look up CC50: C[C@@H](NC(=O)N1C(=O)C[C@@H]1SC[C@H](CCS(C)(=O)=O)NC(=O)[C@@H](NC(=O)OC(C)(C)C)C(C)(C)C)c1ccccc1 [Entry 105]
*A* > 250 µM

*Q* Return reported CC50; argument: CC(C)C[C@@H](CS[C@H]1CC(=O)N1C(=O)NCc1ccccc1)NC(=O)[C@@H](NC(=O)OC(C)(C)C)C(C)(C)C [Entry 101]
*A* > 11 µM

*Q* // returns reported CC50 for input C[C@@H](NC(=O)N1C(=O)C[C@@H]1SCc1ccccc1)c1ccccc1 [Entry 103]
*A* > 5 µM

*Q* // CC50 lookup, key: C[C@@H](NC(=O)N1C(=O)C[C@@H]1Sc1ccccc1)c1ccccc1 [Entry 102]
*A* > 100 µM

*Q* Given the compound C[C@@H](NC(=O)N1C(=O)C[C@@H]1SCCc1ccccc1)c1ccccc1 [Entry 104] , what is its reported CC50?
*A* > 4 µM

*Q* Which measured CC50 value corresponds to CC(C)C[C@@H](CO[C@H]1CC(=O)N1C(=O)N[C@H](C)c1ccccc1)NC(=O)[C@@H](NC(=O)OC(C)(C)C)C(C)(C)C [Entry 203] ?
*A* > 49 µM

*Q* Given the compound CC[C@@H](NC(=O)N1C(=O)C[C@@H]1SCc1ccccn1)c1ccccc1 [Entry 114, hydrochloride] , what is its reported CC50?
*A* > 200 µM
